The values you see were collected from paper PMC7008132.

# measured.on: human MDM2 (residues 1–118) (Homo sapiens)
# measurement.description: Fluorescence polarization
# test.settings: fluorescence polarization assay; qualitative statement
quantity.name: MDM2 binding activity in words

Request: Value lookup for MDM2 binding activity in words; key = CC(C)(C)NC(=O)C(c1ccc(Cl)cc1)N(C=O)Cc1ccc(OCc2ccc(Cl)c(Cl)c2)cc1 (stereo not shown)
Response: no binding

Request: Value lookup for MDM2 binding activity in words; key = CC(C)(C)NC(=O)C(c1cccc(Cl)c1)N(C=O)Cc1ccc(Cl)cc1 (stereo not shown)
Response: no binding
